- assaySystem: recombinant N-terminal MLH1 (residues 15-340) (Homo sapiens)
- Construct: recombinant N-terminal MLH1 (residues 15-340)
- Sequence (P40692 15-340): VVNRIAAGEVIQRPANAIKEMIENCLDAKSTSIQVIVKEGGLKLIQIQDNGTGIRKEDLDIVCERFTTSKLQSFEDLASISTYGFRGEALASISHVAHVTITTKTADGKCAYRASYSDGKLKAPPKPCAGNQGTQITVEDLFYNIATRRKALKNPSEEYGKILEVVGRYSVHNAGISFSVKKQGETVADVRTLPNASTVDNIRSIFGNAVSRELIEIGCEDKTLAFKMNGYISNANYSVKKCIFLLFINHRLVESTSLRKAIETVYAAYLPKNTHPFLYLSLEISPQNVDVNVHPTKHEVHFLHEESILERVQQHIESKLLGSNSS
- testName: Fluorescence Polarisation Assay for MLH1
- cond: fluorescence polarisation probe displacement; 100 nM N-terminal MLH1, 5 nM probe compound
pIC50: −log10 of the molar value.
In this section we review reported pIC50 values for a set of compounds.

INSERT INTO measurements (compound, result) VALUES
  ('CC(C)(C)OC(=O)NCCCCCN1CCN(Cc2ccc3c(c2)CN(C(=O)c2c(O)cc(O)cc2OCc2ccccc2)C3)CC1', '> 6.00'),
  ('O=C(c1c(O)cc(O)cc1OCc1ccccc1)N1CCc2ccc(F)c(NC3CCOC3)c2C1 (stereo not shown)', '5.00 to 6.00');

Fill in the blank: the reported pIC50 of "O=C(c1c(O)cc(O)cc1OCc1ccccc1)N1Cc2ccc(CNC3COC3)cc2C1" is ____. > 6.00

Then this compound: O=C(c1c(O)cc(O)cc1OCc1ccccc1)N1CCc2cccc(NC3CCS(=O)(=O)C3)c2C1 (single isomer, unassigned) [Example 147a] > 6.00

Then this compound: "O=C(c1c(O)cc(O)cc1OCc1ccccc1)N1Cc2cccc(OCC3CNC3)c2C1" 5.00 to 6.00

Then this compound: CC(=O)N1CCC(Nc2cccc3c2CN(C(=O)c2c(O)cc(O)cc2OCc2ccccc2)C3)C1 (stereo not shown) > 6.00

Then this compound: "CN1CCN(C(=O)c2cc3c(c(N[C@H]4CCOC4)c2)CN(C(=O)c2c(O)cc(O)cc2OCc2ccccc2)CC3)CC1" > 6.00

----------
- assaySystem: recombinant N-terminal PMS2 (residues 1-365) (Homo sapiens, UniProt P54278)
- Construct: recombinant N-terminal PMS2 (residues 1-365)
- Sequence (P54278 1-365): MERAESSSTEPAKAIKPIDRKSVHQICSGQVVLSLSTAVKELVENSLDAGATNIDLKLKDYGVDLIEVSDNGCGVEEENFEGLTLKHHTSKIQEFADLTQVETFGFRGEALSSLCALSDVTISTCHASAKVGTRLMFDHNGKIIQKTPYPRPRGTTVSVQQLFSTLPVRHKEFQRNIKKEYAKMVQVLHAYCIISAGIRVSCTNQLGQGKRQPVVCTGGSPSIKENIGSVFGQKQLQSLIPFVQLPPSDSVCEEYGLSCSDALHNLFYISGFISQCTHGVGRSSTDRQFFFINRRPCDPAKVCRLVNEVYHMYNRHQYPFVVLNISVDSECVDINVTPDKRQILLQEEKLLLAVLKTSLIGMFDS
- testName: Fluorescence Polarisation Assay for PMS2
- Type: binding
- cond: fluorescence polarisation probe displacement; 10 nM N-terminal PMS2, 5 nM probe compound; read-out: PMS2 IC50
Counter-ions that a name gives are not always drawn.
In this section we review reported IC50 values for a set of molecules.

INSERT INTO assay_data (molecule, result) VALUES
  ('O=C(c1c(O)cc(O)cc1OCc1ccccc1)N1Cc2ccccc2C(O)C1 (single isomer, unassigned) [Example 50]', '> 10 µM'),
  ('O=C(c1c(O)cc(O)cc1OCc1ccccc1)N1Cc2cccc(OCc3cncnc3)c2C1', '< 1 µM'),
  ('CC12CC(Nc3cccc4c3CN(C(=O)c3c(O)cc(O)cc3OCc3ccccc3)C4)(CO1)C2', '1 to 10 µM'),
  ('O=C(c1c(O)cc(O)cc1OCc1ccccc1)N1Cc2cccc(OCC3CNC3)c2C1', '1 to 10 µM'),
  ('O=C(c1c(O)cc(O)cc1OCc1ccccc1)N1CCc2cccc(NC3CCS(=O)(=O)C3)c2C1 (centres unmarked) [Example 147]', '1 to 10 µM'),
  ('NCc1cccc2c1CN(C(=O)c1c(O)cc(O)cc1OCc1ccccc1)C2 [Example 83, hydrochloride]', '1 to 10 µM'),
  ('Cn1ncc(Nc2cccc3c2CN(C(=O)c2c(O)cc(O)cc2OCc2ccccc2)C3)n1', '1 to 10 µM');

Moving on to another molecule below.
Fill in the blank: the reported IC50 of "CN(C)Cc1ccc2c(c1)CN(C(=O)c1c(O)cc(O)cc1OCc1ccccc1)CC2" is ____. 1 to 10 µM
